Assay: Intrinsic clearance in mouse liver microsomes preincubated for 5 mins followed by NADPH addition and measured after 5 to 60 mins by LC-MS/MS analysis
Assay type: ADME, Microsome
Conditions: time 5-60 min, read-out: CLH
microsomal CLint reference
READOUT NAME: microsomal CLint (µL/min/mg)

>>> readout_number("COc1ccc2c(c1)[C@]13CCCC[C@@H]1[C@H](C2)N(C)CC3 [DEXTROMETHORPHAN]")
83.3
>>> readout_number("COc1cc(/C=C/c2ccc(NC(=O)C3CC3)cc2)c(/C=C/[N+](=O)[O-])c(OC)c1")
32

###

Target: NACHT, LRR and PYD domains-containing protein 3 (Mus musculus)
Assay: Inhibition of NLRP3 inflammasome activation in LPS-stimulated mouse J774A.1 cells assessed as inhibition of cell pyrolysis at 10 uM incubated for 1 hr followed by ATP addition and measured after 30 mins by Hoechst 33342/propidium iodide staining based high content screening method relative to control
Conditions: J774.A1, time 1.5 hrs
Our labelling divides records by inhibition into ranges: low range (below 30%), mid range (30% to below 40%), high range (40% or more)

>>> group("O=[N+]([O-])/C=C/c1ccc2c(c1)OCO2")
"high range"
>>> group("COc1cc(/C=C/c2ccc(OCC(=O)NCc3ccccc3)cc2)c(/C=C/[N+](=O)[O-])c(OC)c1")
"low range"
>>> group("C/C=C/C(=O)Nc1ccc(/C=C/c2cc(OC)cc(OC)c2/C=C/[N+](=O)[O-])cc1")
"high range"
>>> group("COCCOc1ccc(/C=C/c2cc(OC)cc(OC)c2)cc1")
"low range"
>>> group("CCCC(=O)Nc1ccc(/C=C/c2cc(OC)cc(OC)c2/C=C/[N+](=O)[O-])cc1")
"high range"
>>> group("COc1ccc(NC(=O)COc2ccc(/C=C/c3cc(OC)cc(OC)c3/C=C/[N+](=O)[O-])cc2)cc1")
"low range"
>>> group("COc1cc(/C=C/c2ccc(OCC(=O)NCc3ccc(C#N)cc3)cc2)c(/C=C/[N+](=O)[O-])c(OC)c1")
"mid range"
>>> group("COCCOc1ccc(/C=C/c2cc(OC)cc(OC)c2/C=C/[N+](=O)[O-])cc1")
"mid range"
